targetDesc: EPAC2 (Mus musculus, UniProt Q9EQZ6)
Construct: made in house
Sequence (Q9EQZ6 1-1011): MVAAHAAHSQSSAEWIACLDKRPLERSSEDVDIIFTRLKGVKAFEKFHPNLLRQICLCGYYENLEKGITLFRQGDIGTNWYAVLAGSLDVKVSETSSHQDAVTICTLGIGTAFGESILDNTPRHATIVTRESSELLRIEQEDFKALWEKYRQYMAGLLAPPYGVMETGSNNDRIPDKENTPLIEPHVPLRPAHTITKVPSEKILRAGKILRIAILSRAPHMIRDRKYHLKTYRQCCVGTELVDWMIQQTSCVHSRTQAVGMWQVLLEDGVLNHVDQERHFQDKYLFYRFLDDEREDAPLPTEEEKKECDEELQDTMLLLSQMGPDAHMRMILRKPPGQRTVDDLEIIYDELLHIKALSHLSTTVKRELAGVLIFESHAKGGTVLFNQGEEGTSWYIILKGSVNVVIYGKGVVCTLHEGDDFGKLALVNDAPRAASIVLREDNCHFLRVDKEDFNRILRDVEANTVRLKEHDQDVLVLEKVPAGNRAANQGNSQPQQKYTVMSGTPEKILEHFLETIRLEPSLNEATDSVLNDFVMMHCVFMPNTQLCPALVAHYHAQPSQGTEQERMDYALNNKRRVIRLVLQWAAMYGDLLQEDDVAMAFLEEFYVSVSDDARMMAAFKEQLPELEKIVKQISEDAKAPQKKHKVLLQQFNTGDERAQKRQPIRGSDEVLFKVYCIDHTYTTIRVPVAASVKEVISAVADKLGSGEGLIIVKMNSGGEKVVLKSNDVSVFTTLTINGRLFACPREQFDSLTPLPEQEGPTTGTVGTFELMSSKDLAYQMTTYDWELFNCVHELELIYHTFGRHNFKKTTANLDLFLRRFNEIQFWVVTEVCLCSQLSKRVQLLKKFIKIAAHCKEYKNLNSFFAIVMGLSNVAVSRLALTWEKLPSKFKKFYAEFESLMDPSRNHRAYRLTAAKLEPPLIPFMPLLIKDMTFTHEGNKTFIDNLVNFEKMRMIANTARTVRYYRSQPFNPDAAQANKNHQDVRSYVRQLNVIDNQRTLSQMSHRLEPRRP
assay: 8-NBD-cAMP competition assay
Format: binding
studyConditions: 50 nM EPAC2, 60 nM 8-NBD-cAMP; read-out: IC50, potency in competing with 8-NBD-cAMP binding to EPAC2
Please respond with reported pIC50 for every item in the list.
Give bare numbers, as −log10 of the molar value.

CC(C)(C)c1cc(C(=O)C(C#N)=NNc2cccc(Cl)c2)no1 ... 5.05
CC(C)(C)c1cc(C(=O)/C(C#N)=N/Nc2ccccc2Cl)no1 ... 4.55
CC(C)(C)c1cc(C(=O)/C(C#N)=N/Nc2cccc(Cl)c2Cl)no1 ... 4.45
CC(C)(C)c1cc(C(=O)/C(C#N)=N/Nc2cc(Cl)cc(Cl)c2)no1 ... 5.72
CC(C)(C)c1cc(C(=O)/C(C#N)=N/Nc2cc(Cl)ccc2Cl)no1 ... 5.14
CC(C)(C)c1cc(C(=O)/C(C#N)=N/Nc2ccc(Cl)cc2)no1 ... 4.58

Okay, next one:
Given the entry CC(C)(C)c1cc(C(=O)/C(C#N)=N/Nc2ccc(Cl)c(Cl)c2)no1 , report its measured pIC50. 5.52
